Tested on: HTT mRNA
Assay Overview: Splicing assay (RT-qPCR) monitoring HTT splice variants, canonical (CJ) and alternative (AJ) junction
Type: cell-based
Test Settings: decrease in CJ mRNA, 50% response, A673 or K562 cell line, 24 hours
pIC50: −log10 of the molar value.
The reader will find reported pIC50 values listed item by item below.

1) Cc1cn2cc(-c3nc4sc(C5CCNCC5)cc4s3)ncc2n1 :: 5.00 to 6.00
2) Cc1cn2cc(-c3cc4cn(C5CCNCC5)nc4s3)cc(C)c2n1 :: > 7.00
3) c1n[nH]cc1-n1cc2cc(C3CCNCC3)sc2n1 :: < 5.00
4) Cc1cn2nc(-c3cc4sc(C5CCNCC5)nc4s3)cc(C)c2n1 :: 6.00 to 7.00
5) Cc1cn2nc(-n3cc4cc(C5CCNCC5)sc4n3)nc2c(C)n1 :: 5.00 to 6.00

Ask | # input molecule: `Cc1cn2nc(-c3nc4sc(C5CCNCC5)cc4s3)cc(C)c2n1` ; wanted: its pIC50
Reply | > 7.00

---

Test system: HTT mRNA
Assay Overview: Splicing assay (RT-qPCR) monitoring HTT splice variants, canonical (CJ) and alternative (AJ) junction
Type: cell-based
Test Settings: increase in AJ mRNA, 50% response, A673 or K562 cell line, 24 hours
The reader will find reported AC50 values listed item by item below.

Ask | Look up AC50 with HTT mRNA for this compound: `Cn1cc2cc(-c3cc4cn(C5CNC5)nc4s3)cc(F)c2n1`
Reply | 1000 to 10000 nM

Ask | And what about the compound `Cc1cn2nc(-n3cc4cc(C5CCNCC5)sc4n3)cc2c(C)n1` ?
Reply | 1000 to 10000 nM

Ask | And what about the compound `Cc1cn2nc(-n3cc4cc(C5CCNCC5)sc4n3)cc(C)c2n1` ?
Reply | 100 to 1000 nM

Ask | And what about the compound `Cn1cc2cc(-c3cc4cn(C5CCNCC5)nc4s3)ncc2n1` ?
Reply | 100 to 1000 nM

---

The reader will find reported IC50 values listed item by item below.
System: HTT mRNA
Assay Overview: Splicing assay (RT-qPCR) monitoring HTT splice variants, canonical (CJ) and alternative (AJ) junction
Format: cell-based
Test Settings: decrease in CJ mRNA, 50% response, A673 or K562 cell line, 24 hours

Ask | # input compound: `Cn1cc2cc(-n3cc4cc(C5CCNCC5)sc4n3)c(O)cc2n1` ; wanted: its IC50
Reply | 1000 to 10000 nM

Ask | And what about the compound `COc1c(-c2cc3cn(C4CCNCC4)nc3s2)nn2cc(C)nc(C)c12` ?
Reply | > 10000 nM

Ask | And what about the compound `Cn1cc2cc(-c3cc4cn([C@H]5CCNC[C@@H]5F)nc4s3)cc(F)c2n1` ?
Reply | 100 to 1000 nM

---

The reader will find reported AC50 values listed item by item below.
System: HTT mRNA
Assay Overview: Splicing assay (RT-qPCR) monitoring HTT splice variants, canonical (CJ) and alternative (AJ) junction
Format: cell-based
Test Settings: increase in AJ mRNA, 50% response, A673 or K562 cell line, 24 hours
Experimental: Compounds described herein were used to modulate RNA transcript abundance in cells. The expression of a target mRNA was measured by detecting the formation of an exon-exon junction in the canonical transcript (CJ). A compound mediated exon-inclusion event was detected by observing an increase in formation of a new junction with an alternative exon (AJ). […] After treatment, the levels of the HTT mRNA targets were determined from each sample of cell lysate by cDNA synthesis followed by qPCR. […]

1) Cc1cn2nc(-c3nc4sc(C5CCOCC5)cc4s3)cc(C)c2n1 :: 1000 to 10000 nM
2) Cc1cn2nc(-n3cc4sc(N5CCC(NC(C)(C)C)C5)cc4n3)cc(C)c2n1 (stereo not shown) :: > 10000 nM
3) CN1CCC(c2cc3sc(-c4cc(F)c5nn(C)cc5c4)nc3s2)CC1 :: < 100 nM
4) CN1CCC(n2cc3cc(-c4cc(F)c5nn(C)cc5c4)sc3n2)CC1 :: 100 to 1000 nM
5) Cn1cc2cc(-c3cc4cn(C5CCNCC5)nc4s3)c(C#N)cc2n1 :: 1000 to 10000 nM

Ask | Look up AC50 with HTT mRNA for this compound: `Cn1cc2cc(-c3cc4sc(C5CCNCC5)nc4s3)cc(F)c2n1`
Reply | < 100 nM

Ask | And what about the compound `Cn1cc2cc(-c3cn4nc(C5CCNCC5)nc4s3)cc(F)c2n1` ?
Reply | 100 to 1000 nM
